target: Glucocorticoid receptor (Homo sapiens) (UniProt P04150); experiment: qHTS assay for small molecule agonists of glucocorticoid receptor signaling (AID 588532); details: HeLa MMTV-bla, beta-lactamase ratio, agonist, 18 h; active compounds read high; percent of dexamethasone control, DMSO zero;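 also: 100% = dexamethasone at 0.1 µM and 0% = DMSO only wells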
Sequence (P04150 whole entry, looked up): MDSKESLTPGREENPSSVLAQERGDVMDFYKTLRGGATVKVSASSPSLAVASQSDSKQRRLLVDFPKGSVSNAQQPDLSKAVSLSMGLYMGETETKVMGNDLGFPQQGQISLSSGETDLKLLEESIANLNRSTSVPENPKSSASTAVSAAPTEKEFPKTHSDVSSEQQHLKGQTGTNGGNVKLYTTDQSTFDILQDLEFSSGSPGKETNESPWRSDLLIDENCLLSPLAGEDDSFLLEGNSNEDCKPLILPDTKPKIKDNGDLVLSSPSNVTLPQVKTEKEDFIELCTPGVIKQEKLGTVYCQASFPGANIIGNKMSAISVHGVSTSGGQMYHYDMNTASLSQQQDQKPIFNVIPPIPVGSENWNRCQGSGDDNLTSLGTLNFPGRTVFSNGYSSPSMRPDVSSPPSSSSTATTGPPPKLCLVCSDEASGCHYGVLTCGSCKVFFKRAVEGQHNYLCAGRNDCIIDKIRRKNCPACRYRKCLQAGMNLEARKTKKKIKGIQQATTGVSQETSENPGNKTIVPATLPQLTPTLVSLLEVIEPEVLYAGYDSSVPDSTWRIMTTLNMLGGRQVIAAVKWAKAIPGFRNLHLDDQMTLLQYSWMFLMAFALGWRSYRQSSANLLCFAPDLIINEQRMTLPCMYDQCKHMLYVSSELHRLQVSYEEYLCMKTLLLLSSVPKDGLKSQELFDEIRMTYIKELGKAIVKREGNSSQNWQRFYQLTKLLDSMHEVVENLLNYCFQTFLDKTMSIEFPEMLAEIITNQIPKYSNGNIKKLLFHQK
Inconclusive results are not listed.
Would you kindly list activation for each of these compounds?
# unit: % | format: bare number

Query activation on Glucocorticoid receptor (Homo sapiens) (UniProt P04150) for Cc1ccc(N=Nc2c(O)ccc3ccccc23)c([N+](=O)[O-])c1
-1.07

Param item: CNc1nc(=O)n(C2CCC(O)CC2)c(=O)n1C (centres undefined)
2.82

Param item: CCCCC(CC)COC(=O)/C=C\C(=O)OCC(CC)CCCC (centres undefined)
-2.45

Param item: COC(=O)CCSCCC(=O)OC
8.88

Param item: CC(C)C(=O)OC(=O)C(C)C
-15

Param item: CC(C)(C)c1n[nH]c(=O)n(N)c1=O
14.6

Param item: CCCCOC(=O)/C=C\C(=O)OCCCC
-13.3

Param item: Nc1nc(N)nc(-c2ccccc2)n1
-8.55

Param item: CC/C(=C(\c1ccc(O)cc1)c1ccc(OCCN(C)C)cc1)c1ccccc1
-2.75

Param item: CCCCCCCCCCCCCCCCCCN
-6.46

Param item: CCCCC(CC)COC(=O)CS (centres undefined)
8.21

Param item: CCSC(=O)N(CC(C)C)CC(C)C
-2.35

Param item: CCCCCCCCCCCCCCC
-6.59

Param item: CC(C)(C)C(O)/C(=C\c1ccc(Cl)cc1)n1cncn1 (centres undefined)
0.903
